- assay.name: Bioavailability in cynomonkey
- Format: ADME, organism-based, Macaca fascicularis
- condition.label: cynomolgus monkey, in vivo
observable: bioavailability (%)
Give the quantity in %, number only.

Given the entry `O=C(O)C[C@H](Cc1csc(CCCc2ccc3c(n2)NCCC3)n1)c1ccc2c(c1)OCO2` , report its measured bioavailability.
64

---

- assay.name: Half life in cynomonkey
- Assay type: ADME, organism-based, Macaca fascicularis
- condition.label: cynomolgus monkey, in vivo
observable: half-life (h)
Give the quantity in h, number only.

Given the entry `O=C(O)C[C@H](Cc1csc(CCCc2ccc3c(n2)NCCC3)n1)c1ccc2c(c1)OCO2` , report its measured half-life.
11.2

---

I'd appreciate it if you could supply half-life values for the items below.
- assay.name: Half life in rat
- Type: ADME, organism-based
- condition.label: in vivo
Give the quantity in h, number only.

Given the entry O=C(O)CC(Cc1csc(CCCc2ccc3c(n2)NCCC3)n1)c1ccc2c(c1)OCO2 (configuration not stated) , report its measured half-life.
7

Try the compound COc1ccc(C(CC(=O)O)Cc2csc(CCCc3ccc4c(n3)NCCC4)n2)cc1F (configuration not stated)
4.3

Try the compound O=C(O)CC(Cc1csc(CCCc2ccc3c(n2)NCCC3)n1)c1cnc(C2CC2)s1 (configuration not stated)
3.4

Try the compound COc1cc(OC)cc(C(CC(=O)O)Cc2csc(CCCc3ccc4c(n3)NCCC4)n2)c1 (configuration not stated)
6.1

Try the compound O=C(O)CC(Cc1nc(CCCc2ccc3c(n2)NCCC3)no1)c1ccc2c(c1)OCO2 (racemic)
1.4

Try the compound COc1ccc(C(CC(=O)O)Cc2csc(CCCc3ccc4c(n3)NCCC4)n2)cn1 (configuration not stated)
6.3

Try the compound COCc1ncc(C(CC(=O)O)Cc2csc(CCCc3ccc4c(n3)NCCC4)n2)s1 (configuration not stated)
7.1

---

- assay.name: Bioavailability in rat
- Type: ADME, organism-based
- condition.label: in vivo
I'd appreciate it if you could supply bioavailability values for the items below.
Give the quantity in %, number only.

Given the entry COc1ccc(C(CC(=O)O)Cc2csc(CCCc3ccc4c(n3)NCCC4)n2)cc1F (configuration not stated) , report its measured bioavailability.
95

Try the molecule COCc1ncc(C(CC(=O)O)Cc2csc(CCCc3ccc4c(n3)NCCC4)n2)s1 (configuration not stated)
90

Try the molecule O=C(O)CC(Cc1nc(CCCc2ccc3c(n2)NCCC3)no1)c1ccc2c(c1)OCO2 (racemic)
95

Try the molecule COc1cc(OC)cc(C(CC(=O)O)Cc2csc(CCCc3ccc4c(n3)NCCC4)n2)c1 (configuration not stated)
98

---

- Tested on: Rattus norvegicus
- assay.name: AUC/dose(mg/kg) in iv dosed rat
- Assay type: ADME, organism-based, Plasma
- condition.label: in vivo
observable: AUC/dose (µg·h/mL)
Give the quantity in µg·h/mL, number only.

Given the entry COc1ccc(C(CC(=O)O)Cc2csc(CCCc3ccc4c(n3)NCCC4)n2)cn1 (configuration not stated) , report its measured AUC/dose.
1.4

Try the compound COCc1ncc(C(CC(=O)O)Cc2csc(CCCc3ccc4c(n3)NCCC4)n2)s1 (configuration not stated)
1.9

Try the compound O=C(O)CC(Cc1csc(CCCc2ccc3c(n2)NCCC3)n1)c1ccc2c(c1)OCO2 (configuration not stated)
5.2

Try the compound O=C(O)CC(Cc1nc(CCCc2ccc3c(n2)NCCC3)no1)c1ccc2c(c1)OCO2 (racemic)
1.6

Try the compound COc1cc(OC)cc(C(CC(=O)O)Cc2csc(CCCc3ccc4c(n3)NCCC4)n2)c1 (configuration not stated)
2.2

Try the compound COc1ccc(C(CC(=O)O)Cc2csc(CCCc3ccc4c(n3)NCCC4)n2)cc1F (configuration not stated)
1.9

Try the compound O=C(O)CC(Cc1csc(CCCc2ccc3c(n2)NCCC3)n1)c1cnc(C2CC2)s1 (configuration not stated)
2.4
